- System: pigweed (Amaranthus retroflexus)
- Test summary: Test B pre-/postemergence plant response
- Assay type: in vivo
- Condition label: 31 g ai/ha, postemergence; scale 0 to 100, 0 is no effect, 100 is complete control
Measurement name: Plant response rating, Pigweed
Answers are plain numbers.

Guide cases for Plant response rating, Pigweed, answers given:
[
  {
    "Compound": "COCCn1c(-c2ccccc2)ncc(C(=O)C2=C(O)CCCC2=O)c1=O",
    "Recorded value": 100
  },
  {
    "Compound": "COCC(C)n1c(-c2ccccc2)ncc(C(=O)C2=C(O)CCCC2=O)c1=O (stereo not shown)",
    "Recorded value": 95
  },
  {
    "Compound": "CCCc1ncc(C(=O)C2=C(O)CCCC2=O)c(=O)n1-c1ccccc1C",
    "Recorded value": 80
  },
  {
    "Compound": "Cc1ccc(-c2ncc(C(=O)C3=C(O)CCCC3=O)c(=O)n2-c2ccccc2)cc1",
    "Recorded value": 100
  },
  {
    "Compound": "O=C1CCCC(O)=C1C(=O)c1cnc(-c2ccccc2Br)n(-c2ccccc2)c1=O",
    "Recorded value": 85
  }
]

Parameters: items (list). Returns: Plant response rating, Pigweed for each item.
1. Cn1c(-c2ccccc2)ncc(C(=O)C2=C(O)CCCC2=O)c1=O
2. O=C1CCCC(O)=C1C(=O)c1cnc(-c2ccsc2)n(-c2ccccc2)c1=O
3. CC(C)n1c(-c2ccccc2)ncc(C(=O)C2=C(O)CCCC2=O)c1=O
4. O=C1CCCC(O)=C1C(=O)c1cnc(-c2cccc(Cl)c2)n(-c2ccc(Cl)cc2)c1=O
5. CCCCc1ncc(C(=O)C2=C(O)CCCC2=O)c(=O)n1-c1cccc(C)c1

[80, 98, 85, 98, 85]
